viability at 28.5 h, 10 µM reference
assay method text: in vitro
test context: human, hela cells, % viability
metric: viability at 28.5 h, 10 µM (%)

{"compound": "C[C@H](c1ccccc1)n1c(=O)[nH]c2ncc(-c3ccc(C(=O)N4CCN(C)CC4)cc3)nc21 [CBK064559]", "observed result": 101}
{"compound": "CCc1ccc(CNC(=O)Cn2nnc(-c3ccc(CNC4CCOCC4)cc3)n2)cc1 [CBK161029C]", "observed result": 89.8}
{"compound": "O=C(CN1CCCCCC1)N1CCCC1c1n[nH]cc1-c1cccc(Cl)c1 (stereo not shown) [CBK283084]", "observed result": 94.7}
{"compound": "COc1cc(CNC(=O)NC(=O)C2CCN(C(C)C)CC2)cc(OC)c1OC [CBK034800]", "observed result": 82.9}

---

assay method text: in vitro
test context: human, hela cells, % viability
As shown below, each of these compounds has a reported viability at 28.5 h, 10 µM value.

{"compound": "Cc1cc(=O)nc(SC(C)C(=O)O)[nH]1 (stereo not shown)", "units of measure": "%", "viability at 28.5 h, 10 µM": 95.3}
{"compound": "Nc1nn2c(c1Cc1c(Cl)cccc1Cl)OCCCC2", "units of measure": "%", "viability at 28.5 h, 10 µM": 91.8}
{"compound": "O=C(NCCn1nc2c(cc1=O)CCCCC2)c1ccccc1", "units of measure": "%", "viability at 28.5 h, 10 µM": 85.7}
{"compound": "Cc1nc(Cc2nc(-c3ccc4c(c3)CCCN4S(C)(=O)=O)cs2)cs1", "units of measure": "%", "viability at 28.5 h, 10 µM": 97.3}
{"compound": "CN(C)CCn1c2c(c3ccccc31)CCCn1cnnc1-2 [CBK267712C]", "units of measure": "%", "viability at 28.5 h, 10 µM": 97.2}
{"compound": "CC(C)NC(=O)Cn1c(-c2cccs2)cc2cccnc21", "units of measure": "%", "viability at 28.5 h, 10 µM": 97.3}
{"compound": "CC(C)CC(=O)NC(N=C(S)Nc1sc2c(c1C#N)CCCC2)C(Cl)(Cl)Cl (stereo not shown)", "units of measure": "%", "viability at 28.5 h, 10 µM": 85.2}
{"compound": "COc1ccccc1-c1ncc(OCC(F)(F)F)nc1NC(=O)c1ccco1", "units of measure": "%", "viability at 28.5 h, 10 µM": 98.3}
{"compound": "Cc1cc(C)c2oc(-c3ccc(Cl)c(NC(=O)Cc4ccc(Cl)cc4)c3)nc2c1", "units of measure": "%", "viability at 28.5 h, 10 µM": 97.8}
{"compound": "CC(C)n1nccc1NC(=O)CCn1c(C(F)F)cc2cccnc21", "units of measure": "%", "viability at 28.5 h, 10 µM": 99.3}
{"compound": "Cc1ccc([N+](=O)[O-])c(OCCNCCN(C)C)c1 [CBK267822C]", "units of measure": "%", "viability at 28.5 h, 10 µM": 89}
{"compound": "CCc1c(C(=O)N(C)Cc2cnn(C(C)C)c2)[nH]c2ccccc12", "units of measure": "%", "viability at 28.5 h, 10 µM": 92.9}
{"compound": "CC(=O)c1c(C)oc2ccc(N(C(=O)c3cccc([N+](=O)[O-])c3)S(=O)(=O)c3cccc4cccnc34)cc12", "units of measure": "%", "viability at 28.5 h, 10 µM": 70.2}
{"compound": "Cc1c(C(=O)C2=C(O)C(=O)N(Cc3cccnc3)C2c2ccncc2)cnn1-c1ccccc1 (stereo not shown)", "units of measure": "%", "viability at 28.5 h, 10 µM": 114}
{"compound": "Cc1nc(CC(=O)O)c(-c2ccccc2)s1", "units of measure": "%", "viability at 28.5 h, 10 µM": 110}
{"compound": "c1ccc2cc(-c3cc(Nc4ccc(N5CCOCC5)cc4)ncn3)ccc2c1", "units of measure": "%", "viability at 28.5 h, 10 µM": 94.2}
{"compound": "Nc1nc(-c2ccc(F)cc2)c2c(n1)-c1ccccc1C2=O", "units of measure": "%", "viability at 28.5 h, 10 µM": 114}
{"compound": "N#Cc1ccc(CNC(=O)N2CCN(Cc3ccccc3)CC2)cc1", "units of measure": "%", "viability at 28.5 h, 10 µM": 90.1}
{"compound": "Cc1oc2cc(OCC(=O)NCC(=O)O)ccc2c(=O)c1-c1ccc(Cl)cc1", "units of measure": "%", "viability at 28.5 h, 10 µM": 99.6}

---

assay method text: in vitro
test context: human, hela cells, % viability, bulk resorufin, single well
metric: viability at 28.5 h, 10 µM (%)

{"compound": "C=CCc1cc(/C=C2\\C(=O)NC(=O)N(c3ccc4c(c3)OCO4)C2=O)cc(OC)c1OCC(=O)O [CBK264025]", "observed result": 98.5}
{"compound": "Fc1ccc(-c2ccc3c(c2)COC2(CCNCC2)O3)c(F)c1 [CBK060917]", "observed result": 96}
{"compound": "COc1cc(NC(=O)Nc2ccc3c(c2)COC2(CCNCC2)O3)cc(OC)c1OC [CBK091530T]", "observed result": 94.9}
{"compound": "CCOC(=O)N1CCC2(CC1)OCc1ccc(-c3ccc(S(C)(=O)=O)nc3)cc1O2 [CBK174780]", "observed result": 92}

---

assay method text: in vitro
test context: human, hela cells, % viability

{"compound": "CC(CCc1ccc(O)cc1)NC1CCCC1 (stereo not drawn)", "units of measure": "%", "viability at 28.5 h, 10 µM": 102}
{"compound": "CCc1cccc(NC(=O)c2cnc(-c3ccc(Cl)cc3)c(-c3ccc(OC)nc3)c2)n1", "units of measure": "%", "viability at 28.5 h, 10 µM": 93.7}
{"compound": "Cc1ccc(C2(CN3CCN(Cc4cnc(C)n4C)CC3)CC2)cc1", "units of measure": "%", "viability at 28.5 h, 10 µM": 93.5}
{"compound": "O=S(=O)(Nc1ccc(N2CCOCC2)cc1)c1cccc(OC(F)(F)F)c1", "units of measure": "%", "viability at 28.5 h, 10 µM": 95.1}
{"compound": "CCCc1ccc(S(=O)(=O)N2CCOC(c3cnn(CC)c3)C2)cc1 (stereo not drawn)", "units of measure": "%", "viability at 28.5 h, 10 µM": 83.4}
{"compound": "Nc1ncc(-c2ccncc2)nc1NCc1cccnc1", "units of measure": "%", "viability at 28.5 h, 10 µM": 103}
{"compound": "Cc1cc2ccccc2n2c(SCC(=O)Nc3nsc(-c4ccccc4)n3)nnc12", "units of measure": "%", "viability at 28.5 h, 10 µM": 116}
{"compound": "Nc1c(C(F)(F)F)cc(Cl)nc1Cl", "units of measure": "%", "viability at 28.5 h, 10 µM": 95.7}
{"compound": "S=C(Nc1cccnc1)N[C@H]1CC[C@@]2(c3cccnc3)CCN(Cc3ccccc3)[C@H]2C1", "units of measure": "%", "viability at 28.5 h, 10 µM": 94.8}

---

assay method text: in vitro
test context: human, hela cells, % viability
Listed here are compounds together with their documented viability at 28.5 h, 10 µM.
metric: viability at 28.5 h, 10 µM (%)

{"compound": "O=C(O)c1ccc(NC2OC(CO)C(O)C2O)cc1 (centres unmarked) [CBK218836]", "observed result": 95.9}
{"compound": "CC(C)(C)C1=CC2=NC3(CCCC3)[C@@H]3C[C@@H](O)[C@@H](O)[C@@H]3N2O1 [CBK303245]", "observed result": 95.1}
{"compound": "C=C(C)C(=O)OCCOC(=O)c1cc(N)cc(N)c1 [CBK261389]", "observed result": 101}
{"compound": "Cc1cccnc1NS(=O)(=O)c1cccs1 [CBK299775]", "observed result": 80.6}
{"compound": "O=C(N[C@@H](Cn1cc(F)c(=O)[nH]c1=O)C(=O)O)C1CCCC1 [CBK289660]", "observed result": 109}

---

assay method text: in vitro
test context: human, hela cells, % viability
metric: viability at 28.5 h, 10 µM (%)

{"compound": "CN(Cc1cccnc1)CC1CCCN(C(=O)Nc2ccc(Cl)cc2)C1 (centres unmarked) [CBK305428]", "observed result": 83.9}
{"compound": "CCc1nn(C)cc1CNC1CCCN(c2ccc(C#N)cc2)C1=O (centres unmarked) [CBK304176]", "observed result": 96.4}
{"compound": "Cc1cccc(Nc2ccc(C3CCCCN3Cc3ccc4nccnc4c3)cn2)n1 (centres unmarked) [CBK285536]", "observed result": 76.2}
{"compound": "CCCCNS(=O)(=O)c1ccc(Cl)c(Cl)c1 [CBK044309]", "observed result": 96.5}
{"compound": "Cc1ccccc1Cc1cccc(C2CCN(C(=O)c3ccc(F)cc3)CC2)n1 [CBK286140]", "observed result": 88.4}
{"compound": "CC(C)(C)c1ccc(-c2nc3ncccc3cc2N)cc1 [CBK067611]", "observed result": 94.4}
{"compound": "Nc1ncnc2c1nc(OCc1ccccc1)n2C1CC(O)C(CO)O1 (centres unmarked) [CBK201164]", "observed result": 94.9}
{"compound": "C=CCN1C(=O)CC2(C1=O)C(=O)N(C)c1ccc(Cl)cc12 (centres unmarked) [CBK075242]", "observed result": 110}
{"compound": "COCCCn1c(C)c(C)n2c3c(=O)n(CCN4CCCCC4)c(=O)n(C)c3nc12 [CBK269762]", "observed result": 102}
{"compound": "Cc1ccc(-c2cc(C(=O)N(C)Cc3cccn3C)[nH]n2)o1 [CBK283324]", "observed result": 100}
{"compound": "COc1ccc(COc2nc3ccccc3nc2NC(C)C)cc1OC [CBK116610]", "observed result": 93.5}
{"compound": "O=S(=O)(c1sccc1F)N1CCOCC1c1cccc(F)c1 (centres unmarked) [CBK304730]", "observed result": 82.6}
{"compound": "CC(=O)N1CCN(c2ccccc2NC(=O)c2ccc(OCc3ccccc3)cc2)CC1 [CBK269775]", "observed result": 103}
{"compound": "O=c1ccc(O)nn1CN1CCN(Cc2ccccc2)CC1 [CBK265539]", "observed result": 91.5}
{"compound": "CCN1C(=O)c2ccccc2C(=O)[C@@]2(C)CN(C)C[C@@H]12 [CBK283478]", "observed result": 88.3}
{"compound": "O=C(CCSc1ccc([N+](=O)[O-])cc1Cl)Nc1ccc(Br)c2cccnc12 [CBK266407]", "observed result": 86.7}
{"compound": "CC(C)(C)COC(=O)N1CCC(N2CCOc3ccc(-c4ccc(S(C)(=O)=O)cc4)cc3C2)CC1 [CBK169264]", "observed result": 83}
{"compound": "CCCc1nc(NC(C)=O)c(C#N)c(-c2ccco2)c1CC [CBK018074]", "observed result": 100}
{"compound": "COc1cc(/C=c2\\sc3nc(-c4ccccc4OC(C)=O)nn3c2=O)ccc1OCc1ccccc1 [CBK264575]", "observed result": 99.2}
{"compound": "O=S(=O)(c1ccccc1)N(Cc1cc2ccccc2nc1O)CC1CCCO1 (centres unmarked) [CBK269424]", "observed result": 93.3}
{"compound": "Cn1c(=O)c2[nH]c(N3CCN(c4cccc(O)c4)CC3)nc2n(C)c1=O [CBK269760]", "observed result": 104}
{"compound": "c1ccc(CN2CCN(Cc3ccccc3)C2c2ccc[nH]2)cc1 [CBK261283]", "observed result": 82.9}
{"compound": "Cc1nc(-c2ccccc2)sc1CNC(=O)Cc1ccccc1F [CBK092372]", "observed result": 104}
{"compound": "COc1ccc(CN2CCCN(c3nccc(OCCN4CCOCC4)n3)CC2)cc1 [CBK083932]", "observed result": 104}
{"compound": "CC(C(=O)Nc1ccc2oc(-c3ccccc3)nc2c1)(c1ccccc1)c1ccccc1 [CBK263928]", "observed result": 91}
{"compound": "CC(=O)CCc1oc2c([N+](=O)[O-])cccc2c1-c1ccc(C)o1 [CBK262476]", "observed result": 89.4}
{"compound": "CCN1CCCN(c2ccc(-n3ccc(C)n3)nn2)CC1 [CBK306297]", "observed result": 108}
{"compound": "Cc1cc(C)n(CC(=O)N2CCCC2c2ccc(C)c(C)c2)c(=O)n1 (centres unmarked) [CBK282991]", "observed result": 99}
{"compound": "FC(F)(F)c1nc2ccccc2nc1SCCc1ccccc1 [CBK107204]", "observed result": 90.3}
{"compound": "Cc1ccnc(NS(=O)(=O)c2ccc(NC(=O)CSc3ccc(Cl)cc3)cc2)n1 [CBK265854]", "observed result": 98.9}
{"compound": "O=C(O)c1cccc(NS(=O)(=O)c2ccc3c(c2)OCCO3)c1 [CBK155697]", "observed result": 96.9}
{"compound": "O=S(=O)(Nc1ccc(Cc2ccncc2)cc1)N1CCCC1 [CBK268263]", "observed result": 112}
{"compound": "O=C(c1cccc(F)c1)N1CCN(Cc2ccccn2)CC1 [CBK263023]", "observed result": 88.5}
{"compound": "COc1cc(C2C(C(=O)c3cccs3)=C(O)C(=O)N2Cc2cccnc2)ccc1O (centres unmarked) [CBK264605]", "observed result": 110}
{"compound": "NC1CCN(C(=O)Cn2ccc3ccnc(-c4cccs4)c32)CC1 [CBK284750]", "observed result": 85.7}
{"compound": "CCCOc1ccc(O)cc1 [CBK122802]", "observed result": 97.8}
{"compound": "CN1CCOc2ccccc2C(=O)NC/C=C/CC2(CCN(C(=O)c3ccc(F)cc3)CC2)C1=O [CBK292055]", "observed result": 92}
{"compound": "COc1ccccc1Nc1nc(N)nc(CSc2ncccn2)n1 [CBK266734]", "observed result": 104}
